Target Or System: FSH receptor (Rattus norvegicus)
Sequence (P20395 18-692): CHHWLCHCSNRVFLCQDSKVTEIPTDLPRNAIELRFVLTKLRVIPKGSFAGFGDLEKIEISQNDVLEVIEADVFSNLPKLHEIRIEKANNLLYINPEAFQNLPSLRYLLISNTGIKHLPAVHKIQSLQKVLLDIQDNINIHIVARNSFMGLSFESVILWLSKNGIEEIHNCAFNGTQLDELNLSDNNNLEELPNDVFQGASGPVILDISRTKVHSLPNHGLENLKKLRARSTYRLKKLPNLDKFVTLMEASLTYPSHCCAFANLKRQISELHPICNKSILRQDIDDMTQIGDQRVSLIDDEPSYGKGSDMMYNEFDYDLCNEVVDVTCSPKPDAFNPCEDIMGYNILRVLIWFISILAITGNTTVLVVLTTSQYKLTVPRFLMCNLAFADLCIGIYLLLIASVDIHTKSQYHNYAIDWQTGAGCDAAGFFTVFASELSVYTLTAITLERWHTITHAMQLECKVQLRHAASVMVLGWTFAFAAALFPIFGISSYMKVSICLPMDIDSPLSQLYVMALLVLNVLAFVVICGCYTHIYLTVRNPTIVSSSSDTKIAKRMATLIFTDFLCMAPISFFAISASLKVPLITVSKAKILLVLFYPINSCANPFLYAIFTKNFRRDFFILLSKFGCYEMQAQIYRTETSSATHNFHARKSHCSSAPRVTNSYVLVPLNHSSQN
Measurement Notes: In Vitro Bioassay of Agonists and Antagonists to the FSH Receptor using Primary Cultures of Rat Granulosa (estradiol secretion)
Condition Set: antagonist mode; ED50 of FSH (0.5 ng/mL), rat granulosa cells, 72 h; read-out: IC50 (half-maximal inhibition of FSH-induced estradiol secretion)
Where a name gives a salt, the structure may show the parent alone.
Measurement Label: IC50 (nM)
Write down the numeric answer in nM and omit the unit.

Hi! What's the reported IC50 for COc1ccc(N=Nc2c(S(=O)(=O)O)cc3cc(Nc4nc(Cl)nc(N(CCC(N)=O)CCC(N)=O)n4)ccc3c2O)cc1 [Example 9, Sodium Salt] on FSH receptor (Rattus norvegicus)?
1900
